// reported folding stability dG per item
B1: HEEH_KT_rd6_3546 (parent)
chain: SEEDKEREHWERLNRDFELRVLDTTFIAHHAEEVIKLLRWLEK

Variants of: B1
test: folding stability dG (cDNA display proteolysis); higher = more stable
recorded_conditions: PBS, room temperature
quantity_name: folding stability dG (kcal/mol)

> print(dat)
    mutant.code  endpoint.unit  data.value
 1         V21M       kcal/mol        1.41
 2         R12A       kcal/mol        1.32
 3          K5Y       kcal/mol        1.35
 4         V21S       kcal/mol        1.16
 5         E11P       kcal/mol        1.71
 6         D16P       kcal/mol        1.94
 7         L19I       kcal/mol        1.39
 8          H9D       kcal/mol         1.2
 9         T25L       kcal/mol        2.18
10         N14Y       kcal/mol         2.2
11         R20V       kcal/mol        1.68
12         T25F       kcal/mol        2.35
13         K36G       kcal/mol        1.14
14         W10Y       kcal/mol        1.09
15          S1C       kcal/mol        2.12
16         E18F       kcal/mol        2.66
17          K5R       kcal/mol        1.23
18         T24N       kcal/mol        1.28
19         E11Y       kcal/mol        2.17
20         D23R       kcal/mol        1.87
21         I27E       kcal/mol       0.508
22         R12D       kcal/mol        1.65
23         K36I       kcal/mol        2.02
24          H9A       kcal/mol        1.42
25          H9R       kcal/mol        1.31
26         L38D       kcal/mol      -0.361
27          E3A       kcal/mol        1.22
28          H9S       kcal/mol        1.38
29         N14C       kcal/mol        2.44
30         L41V       kcal/mol        1.21
31         D23I       kcal/mol        3.03
32          S1W       kcal/mol        1.16
33         L13Q       kcal/mol       0.972
34         L37V       kcal/mol       0.922
35          E2H       kcal/mol        1.42
36         K43N       kcal/mol         1.3
37         D16M       kcal/mol        1.73
38         T25G       kcal/mol       0.905
39         E33D       kcal/mol        1.34
40         E33R       kcal/mol        1.46
41         R15Y       kcal/mol        1.84
42         R20W       kcal/mol        2.38
43          E2D       kcal/mol        1.44
44         R15D       kcal/mol        1.22
45          K5V       kcal/mol        1.46
46          D4F       kcal/mol        1.46

Entry source: the MegaScale stability set (Tsuboyama et al. 2023)
